# assay summary: The drug is tested on Bacteroides vulgatus strain: ATCC8482 for biotransformation. The drug concentrations were measured before and after a 12-h incubation by liquid-chromatography-coupled mass spectrometry (LC–MS)
# recorded conditions: phocaeicola vulgatus, 2 µM

compound	Bacterial Biotransformation
COC(=O)Nc1nc2ccc(C(=O)c3ccccc3)cc2[nH]1	Compound metabolized
CSc1ccc2c(c1)C(N1CCN(C)CC1)Cc1ccccc1S2.O=C(O)/C=C\C(=O)O (centres undefined)	Compound NOT metabolized
CCCc1nc(C(C)(C)O)c(C(=O)OCc2oc(=O)oc2C)n1Cc1ccc(-c2ccccc2-c2nnn[nH]2)cc1	Compound metabolized
CCN(CC)CCCC(C)Nc1c2ccc(Cl)cc2nc2ccc(OC)cc12 (centres undefined)	Compound NOT metabolized
CCN(CC)CCNC(=O)c1cc(S(C)(=O)=O)ccc1OC [TIAPRIDE]	Compound NOT metabolized
COc1cc(C(=O)NCc2ccc(OCCN(C)C)cc2)cc(OC)c1OC [TRIMETHOBENZAMIDE]	Compound NOT metabolized
CC(C)(C#N)c1cc(Cn2cncn2)cc(C(C)(C)C#N)c1	Compound metabolized
COCCCC/C(=N\OCCN)c1ccc(C(F)(F)F)cc1.O=C(O)/C=C\C(=O)O [FLUVOXAMINE MALEATE]	Compound metabolized
Cc1cc2c(s1)Nc1ccccc1N=C2N1CCN(C)CC1	Compound NOT metabolized

---

# assay summary: The drug is tested on Clostridium symbiosum strain: ATCC14940 for biotransformation. The drug concentrations were measured before and after a 12-h incubation by liquid-chromatography-coupled mass spectrometry (LC–MS)
# recorded conditions: 2 µM

molecule	Bacterial Biotransformation
CCS(=O)(=O)CCn1c([N+](=O)[O-])cnc1C [TINIDAZOLE]	Compound metabolized
COC1=CC(=O)C[C@@H](C)[C@]12Oc1c(Cl)c(OC)cc(OC)c1C2=O [GRISEOFULVIN]	Compound NOT metabolized
O=C1N=C([O-])NC1(c1ccccc1)c1ccccc1.[Na+] [PHENYTOIN SODIUM]	Compound metabolized
C=CC[C@@H]1/C=C(\C)C[C@H](C)C[C@H](OC)[C@H]2O[C@@](O)(C(=O)C(=O)N3CCCC[C@H]3C(=O)O[C@H](/C(C)=C/[C@@H]3CC[C@@H](O)[C@H](OC)C3)[C@H](C)[C@@H](O)CC1=O)[C@H](C)C[C@@H]2OC.O [TACROLIMUS]	Compound metabolized
CN(C(=O)CN(CCO)CC(=O)N(C)C(C)(C)Cc1ccccc1)C(C)(C)Cc1ccccc1 [OXETHAZAINE]	Compound NOT metabolized
CCCc1nn(C)c2c(=O)[nH]c(-c3cc(S(=O)(=O)N4CCN(C)CC4)ccc3OCC)nc12.O=C(O)CC(O)(CC(=O)O)C(=O)O [SILDENAFIL CITRATE]	Compound NOT metabolized
COc1ccc2c(c1OC)C(=O)O[C@@H]2[C@H]1c2c(cc3c(c2OC)OCO3)CCN1C [NOSCAPINE]	Compound metabolized

---

# assay summary: The drug is tested on Clostridium sp. strain: fecal isolate for biotransformation. The drug concentrations were measured before and after a 12-h incubation by liquid-chromatography-coupled mass spectrometry (LC–MS)
# recorded conditions: 2 µM
assay readout: Bacterial Biotransformation

molecule	assay readout	result
CC(NC(C)(C)C)C(=O)c1cccc(Cl)c1 (stereo not drawn)	Bacterial Biotransformation	Compound NOT metabolized
CN(C)C(=O)Oc1cc(OC(=O)N(C)C)cc(C(O)CNC(C)(C)C)c1 (stereo not drawn)	Bacterial Biotransformation	Compound NOT metabolized
CO[C@]12C[C@@H](COC(=O)c3cncc(Br)c3)CN(C)[C@@H]1Cc1cn(C)c3cccc2c13	Bacterial Biotransformation	Compound NOT metabolized
CCN(CC)C(C)CN1c2ccccc2Sc2ccccc21 (stereo not drawn)	Bacterial Biotransformation	Compound metabolized
COCCCC/C(=N\OCCN)c1ccc(C(F)(F)F)cc1.O=C(O)/C=C\C(=O)O [FLUVOXAMINE MALEATE]	Bacterial Biotransformation	Compound metabolized
CN(C)CCc1c[nH]c2ccc(CS(=O)(=O)N3CCCC3)cc12	Bacterial Biotransformation	Compound NOT metabolized
COc1cc2c(c(OC)c1OC)-c1ccc(OC)c(=O)cc1[C@@H](NC(C)=O)CC2	Bacterial Biotransformation	Compound metabolized
C[C@]12CCC(=O)C=C1[C@@H]1C[C@@H]1[C@H]1[C@@H]3[C@@H]4C[C@@H]4[C@@]4(CCC(=O)O4)[C@@]3(C)CC[C@@H]12	Bacterial Biotransformation	Compound NOT metabolized
COc1c2occc2cc2ccc(=O)oc12	Bacterial Biotransformation	Compound metabolized
OC(CCN1CCCCC1)(c1ccccc1)C1CC2C=CC1C2 (stereo not drawn)	Bacterial Biotransformation	Compound NOT metabolized
COc1ccc([C@@H]2Sc3ccccc3N(CCN(C)C)C(=O)[C@@H]2OC(C)=O)cc1	Bacterial Biotransformation	Compound metabolized
CC1Cc2ccccc2N1NC(=O)c1ccc(Cl)c(S(N)(=O)=O)c1 (stereo not drawn) [INDAPAMIDE]	Bacterial Biotransformation	Compound NOT metabolized
COC(=O)Nc1nc2ccc(C(=O)c3ccccc3)cc2[nH]1	Bacterial Biotransformation	Compound metabolized
OC(Cn1cncn1)(Cn1cncn1)c1ccc(F)cc1F	Bacterial Biotransformation	Compound metabolized
CCOC(=O)[C@H](CCc1ccccc1)N[C@H]1CCc2ccccc2N(CC(=O)O)C1=O	Bacterial Biotransformation	Compound NOT metabolized
CCN1CCCC1CNC(=O)c1cc(S(N)(=O)=O)ccc1OC (stereo not drawn) [SULPIRIDE]	Bacterial Biotransformation	Compound NOT metabolized
COCCc1ccc(OCC(O)CNC(C)C)cc1.COCCc1ccc(OCC(O)CNC(C)C)cc1.O=C(O)C(O)C(O)C(=O)O (stereo not drawn) [METOPROLOL TARTRATE]	Bacterial Biotransformation	Compound NOT metabolized
COc1ccccc1OCCNCC(O)COc1cccc2[nH]c3ccccc3c12 (stereo not drawn)	Bacterial Biotransformation	Compound NOT metabolized
